Molecular target: T1, human NMI (N-myc Interacting protein), recombinant protein (human, UniProt Q13287 1-307, limits assumed)
T1 construct: Gene ID: 9111; also called hNMI; antigen
T1 sequence (looked up): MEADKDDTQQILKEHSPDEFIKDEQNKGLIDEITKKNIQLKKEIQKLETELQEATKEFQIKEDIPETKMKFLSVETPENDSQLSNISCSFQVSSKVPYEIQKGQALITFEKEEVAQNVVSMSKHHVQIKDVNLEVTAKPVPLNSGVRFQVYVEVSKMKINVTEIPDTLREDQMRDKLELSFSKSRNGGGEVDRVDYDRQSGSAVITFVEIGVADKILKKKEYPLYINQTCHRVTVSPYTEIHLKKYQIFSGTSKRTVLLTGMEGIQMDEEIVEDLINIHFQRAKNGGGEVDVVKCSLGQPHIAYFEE
Assay: sandwich ELISA; detection 94C4-1-biotin 1µg/mL; hNMI 97.656 pg/mL
readout label: OD450 (OD450)
Please respond with the number in OD450 and leave the unit unwritten.

{"columns": ["binder", "unit label", "OD450"],
 "data": [
  ["monoclonal antibody 39B4 (antibody, V domains shown, Rabbit monoclonal antibody; also called 39B4-1) VH: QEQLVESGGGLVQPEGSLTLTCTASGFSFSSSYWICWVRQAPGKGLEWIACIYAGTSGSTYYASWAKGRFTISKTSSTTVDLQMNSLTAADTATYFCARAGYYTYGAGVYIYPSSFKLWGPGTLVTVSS VL: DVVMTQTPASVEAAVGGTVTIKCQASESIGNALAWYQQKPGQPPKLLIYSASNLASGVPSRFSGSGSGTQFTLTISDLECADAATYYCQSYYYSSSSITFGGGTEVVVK", "OD450", 0.169],
  ["monoclonal antibody 240B10-1 (antibody, V domains shown, Rabbit monoclonal antibody) VH: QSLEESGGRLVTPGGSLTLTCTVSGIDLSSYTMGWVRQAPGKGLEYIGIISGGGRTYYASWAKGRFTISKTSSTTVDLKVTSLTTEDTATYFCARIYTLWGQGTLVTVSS VL: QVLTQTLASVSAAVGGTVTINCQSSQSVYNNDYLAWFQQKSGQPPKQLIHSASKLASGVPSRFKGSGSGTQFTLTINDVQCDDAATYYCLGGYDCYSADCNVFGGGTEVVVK", "OD450", 0.185]
]}

[ask] Given the binder monoclonal antibody 98G10 (antibody, V domains shown, Rabbit monoclonal antibody) VH: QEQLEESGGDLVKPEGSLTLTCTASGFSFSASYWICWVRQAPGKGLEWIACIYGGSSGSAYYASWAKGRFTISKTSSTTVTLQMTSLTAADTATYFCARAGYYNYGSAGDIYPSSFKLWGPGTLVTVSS VL: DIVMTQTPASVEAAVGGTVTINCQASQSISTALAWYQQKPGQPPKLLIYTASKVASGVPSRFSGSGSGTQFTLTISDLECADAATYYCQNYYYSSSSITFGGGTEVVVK , what is its reported OD450?
[reply] 0.149
